Experiment: Uninfected Calu-3 48 h Cell-Titer Glo cytotoxicity counter screen
Conditions: human, uninfected Calu-3 cells, Calu-3 uninfected cytotoxicity CC50 GeoMean, detail block
Where a name gives a salt, the structure may show the parent alone.
Measured quantity: CC50 at 48 h (µM)
Numbers only; they are read as µM.

Query OCCN1CCN(CC/C=C2/c3ccccc3Sc3ccc(Cl)cc32)CC1 [Zuclopenthixol] yields CC50 at 48 h of 9.6

Query CCc1ccc2c(c1)N(CC(C)CN(C)C)c1ccccc1S2 (stereo not drawn) [Ethylisobutrazine hydrochloride] yields CC50 at 48 h of 15.7

Query COc1ccc2cc1Oc1ccc(cc1)C[C@H]1c3cc(c(OC)cc3CCN1C)Oc1c(OC)c(OC)cc3c1[C@H](C2)N(C)CC3 [Hanfangchin A] yields CC50 at 48 h of 15.2

----------
Assay: Uninfected HeLa-ACE2 24 h live/dead cytotoxicity counter screen
Assay type: cell-based, human
Details: human, uninfected HeLa-ACE2 cells; read-out: HeLa-ACE2 uninfected cytotoxicity CC50 GeoMean
Measured quantity: CC50 at 24 h

Query "CNC(=O)c1cc(Oc2ccc(NC(=O)Nc3ccc(Cl)c(C(F)(F)F)c3)cc2)ccn1" yields CC50 at 24 h of > 8.65 µM

Query "Nc1ncnc2c1nc(Cl)n2[C@@H]1O[C@H](CO)[C@@H](O)[C@H]1O" yields CC50 at 24 h of > 11.9 µM

Query CCC(CC)COC(=O)[C@H](C)NP(=O)(OC[C@H]1O[C@@](C#N)(c2ccc3c(N)ncnn23)[C@H](O)[C@@H]1O)Oc1ccccc1 (stereo partly shown) [Remdesivir - control] yields CC50 at 24 h of > 9.67 µM

Query "CCC(CC)COC(=O)[C@H](C)N[P@](=O)(OC[C@H]1O[C@@](C#N)(c2ccc3c(N)ncnn23)[C@H](O)[C@@H]1O)Oc1ccccc1" yields CC50 at 24 h of 9.97 µM

----------
Test: Uninfected Calu-3 48 h Cell-Titer Glo cytotoxicity counter screen
Settings: human, uninfected Calu-3 cells, Calu-3 Uninf. cells CC50 (µM), reconfirmed hits
Where a name gives a salt, the structure may show the parent alone.
Measured quantity: CC50 at 48 h (µM)
Numbers only; they are read as µM.

Query CC(C)(C)Cn1c(N)nc2ccc(-c3[nH]c(C(C)(C)C)nc3-c3ccc(F)cc3)nc21 [Ralimetinib mesylate/LY2228820, Ralimetinib mesylate] yields CC50 at 48 h of 13.8

Query "COC(=O)[C@]12CCC(C)(C)C[C@H]1[C@H]1C(=O)C=C3[C@@]4(C)C=C(C#N)C(=O)C(C)(C)[C@@H]4CC[C@@]3(C)[C@]1(C)CC2" yields CC50 at 48 h of 3.06

----------
Test system: SARS-CoV-2
Test: microbe, parasite or virus in culture
Assay type: cell-based
Conditions: Severe acute respiratory syndrome coronavirus 2, Calu-3, 48 h; Sinf average of the curves; read-out: Calu-3 CoV-2 Sinf Average (%)
Counter-ions that a name gives are not always drawn.
Exercise: state measured Emax for each of the molecules provided.
Numbers only; they are read as %.

Query "CC(=O)N1C[C@H](O)C[C@H]1C(=O)N[C@@H](CCCNC(=N)N)C(=O)c1nc2ccccc2s1" yields Emax of 89

Query CN(C)C(C(=O)Nc1ccc2c(=O)[nH]ccc2c1)c1ccsc1 (stereo not drawn) yields Emax of 93

Query N#Cc1cccc(C(C(=O)NCC(c2ccccc2)c2ccccc2)N(CCc2c[nH]cn2)C(=O)c2ccccc2C(=O)c2ccccc2)c1 (stereo not drawn) yields Emax of 79

Query "NC(N)=Nc1ncc(Cl)c2ccc(-c3cccc(C(=O)O)c3)cc12" yields Emax of 85

Query "N=C(N)c1ccc2cc(OC(=O)c3ccc(CNC(=O)CCCC(=O)O)o3)ccc2c1" yields Emax of 91

Query "CC(C)(C)c1ccc(CSc2cnn(C(C)(C)C)c(=O)c2Cl)cc1" yields Emax of 93

Query CSc1ccc(CN2CCCC(Nc3ccc4[nH]ncc4c3)C2)cc1 (stereo not drawn) yields Emax of 77

Query "O[C@@H]1CO[C@H]2[C@@H]1OC[C@H]2Oc1nc2nc(-c3ccc(-c4ccccc4)cc3)c(Cl)cc2[nH]1" yields Emax of 100

Query CCCCCC[C@H]1C(=O)O[C@H](C)[C@H](NC(=O)c2cccc(NC=O)c2O)C(=O)O[C@@H](C)[C@@H]1OC(=O)CC(C)C [Antimycin A] yields Emax of 93

Query "N=C(N)Nc1ccc(C(=O)Oc2ccc(S(N)(=O)=O)cc2)cc1" yields Emax of 96

Query O=C(Nc1ccc(Cl)c(S(=O)(=O)N2CCNCC2)c1O)Nc1cccc(F)c1Cl [Elubrixin tosylate] yields Emax of 100

Query "O=c1[nH]c2ccc(C(F)(F)F)cc2c(-c2cc(Cl)ccc2O)c1CCO" yields Emax of 100

Query "CCOc1ccc(Cc2nc3cc(N(C)S(=O)(=O)c4cccs4)ccc3n2CC2CCCCC2)nc1" yields Emax of 93

Query "O=c1[nH]ccc2cc(OC3CCNCC3)ccc12" yields Emax of 54

Query "CC/C(=C(/c1ccc(/C=C/C(=O)O)cc1)c1ccc2[nH]ncc2c1)c1ccc(F)cc1Cl" yields Emax of 71
